system: MIA PaCa-2; experiment: Antiproliferative activity against human MIA PaCa-2 cells assessed as cell viability measured after 72 hrs by MTT assay; type: functional, cell-based; settings: MIA PaCa-2, 72 h
Each entry below carries its recorded pEC50.
Reminder that pEC50 means the negative base-10 logarithm of the concentration expressed in mol/L.

[
  {
    "molecule": "Cc1nn(Cc2cccc(C(=O)N(C)C)c2)c(C)c1NC(=O)c1ccc(COc2ccccc2)cc1",
    "pEC50": 5.19
  },
  {
    "molecule": "CNC(=O)c1cccc(Cn2nc(C)c(NC(=O)c3ccc(COc4cccc(OC)c4)cc3)c2C)c1",
    "pEC50": 5.21
  }
]

Quick check: pEC50 of CNC(=O)c1cccc(Cn2nc(C)c(NC(=O)c3ccc(COc4ccc(C(F)(F)F)cc4C)cc3)c2C)c1 ?
6.21

Quick check: pEC50 of CCN(CC)CCCC(C)Nc1ccnc2cc(Cl)ccc12 (centres undefined) ?
4.85

Quick check: pEC50 of Cc1nn(Cc2ccccc2C(N)=O)c(C)c1NC(=O)c1ccc(COc2ccccc2)cc1 ?
4.38

Quick check: pEC50 of CNC(=O)c1cccc(Cn2nc(C)c(NC(=O)c3ccc(COc4cccc(Cl)c4)cc3)c2C)c1 ?
5.23

Quick check: pEC50 of Nc1ccn([C@@H]2O[C@H](CO)[C@@H](O)C2(F)F)c(=O)n1 ?
8.82

Quick check: pEC50 of CNC(=O)c1cccc(Cn2nc(C)c(NC(=O)c3ccc(COC4CCCCC4)cc3)c2C)c1 ?
4.85

Quick check: pEC50 of Fc1ccc(CNc2ncnc3ccc(F)cc23)cc1 ?
4.70

Quick check: pEC50 of CNC(=O)c1cccc(Cn2nc(C)c(NC(=O)c3ccc(COc4ccc(OC)cc4)cc3)c2C)c1 ?
5.10

Quick check: pEC50 of CNC(=O)c1cccc(Cn2nc(C)c(NC(=O)c3ccc(COc4ccccc4OC)cc3)c2C)c1 ?
5.07

Quick check: pEC50 of CCNC(=O)c1cccc(Cn2nc(C)c(NC(=O)c3ccc(COc4ccccc4)cc3)c2C)c1 ?
4.96

Quick check: pEC50 of Cc1nn(Cc2ccccc2)c(C)c1NC(=O)c1ccc(COc2ccccc2)cc1 ?
5.00

Quick check: pEC50 of CNC(=O)c1cccc(Cn2nc(C)c(NC(=O)c3ccc(COc4ccc(C(F)(F)F)cc4)cc3)c2C)c1 ?
6.10

Quick check: pEC50 of CNC(=O)c1cccc(Cn2nc(C)c(NC(=O)c3ccc(COc4ccc(C)cc4)cc3)c2C)c1 ?
5.59

Quick check: pEC50 of CNC(=O)c1cccc(Cn2nc(C)c(NC(=O)c3ccc(COc4ccccc4)cc3)c2C)c1 ?
5.21

Quick check: pEC50 of CNC(=O)c1cccc(Cn2nc(C)c(NC(=O)c3ccc(COc4ccc(Cl)cc4)cc3)c2C)c1 ?
5.38

Quick check: pEC50 of Cc1nn(Cc2cccc(C(=O)Nc3ccccc3)c2)c(C)c1NC(=O)c1ccc(COc2ccccc2)cc1 ?
5.19
